# pKi per record follows
target: Cytosol aminopeptidase (Sus scrofa)
test.summary: Compound was tested for inhibition of Leucine aminopeptidase isolated from porcine kidney; Inhibitor exhibits slow-binding behavior(k on <=1000Me-1Se-1)
pKi: −log10 of the molar value.
property.name: pKi

compound=CC(C)CCP(=O)(O)O readout_qualifier== readout_number=3.11
compound=N[C@H](Cc1ccccc1)P(=O)(O)O readout_qualifier== readout_number=4.81
compound=CC(C)CCN readout_qualifier=< readout_number=1.30
compound="COP(=O)(C(=O)N[C@@H](CC(C)C)C(=O)O)C(N)CC(C)C (stereo partly specified)" readout_qualifier== readout_number=2.78
compound="CC(C)CC(N)P(N)(=O)C(=O)N[C@@H](CC(C)C)C(=O)O (stereo partly specified)" readout_qualifier== readout_number=4.40
compound=NCP(=O)(O)O readout_qualifier== readout_number=2.98
compound="CCCCCC(N)P(=O)(O)O (stereo unspecified)" readout_qualifier== readout_number=6.00
compound="COP(=O)(O)C(N)CC(C)C (stereo unspecified)" readout_qualifier== readout_number=3.49
compound="COP(=O)(O)C(N)Cc1ccccc1 (stereo unspecified)" readout_qualifier== readout_number=4.37
compound=N[C@@H](Cc1ccccc1)P(=O)(O)O readout_qualifier== readout_number=6.38
compound=C[C@H](N)P(=O)(O)O readout_qualifier== readout_number=3.62

----------
Collected Ki values appear next to each entry.
test.summary: Compound was tested for inhibition of Leucine aminopeptidase isolated from porcine kidney; Inhibitor exhibits slow-binding behavior(k on <=1000Me-1Se-1)
property.name: Ki (nM)

molecule="CC(C)C(N)P(=O)(O)O (stereo not drawn) [1-amino-2-methylpropylphosphonic acid]" property_name=Ki readout_units=nM readout_number=1200
molecule="CCC(N)P(=O)(O)O (stereo not drawn) [1-aminopropylphosphonic acid]" property_name=Ki readout_units=nM readout_number=3600
molecule="CCCCCCCC(N)P(=O)(O)O (stereo not drawn)" property_name=Ki readout_units=nM readout_number=470
